- Test system: Influenza B virus
- ASSAY_REMARKS: Antiviral activity against oseltamivir resistant Victoria lineage of Influenza B virus (B/Brisbane/60/2008) BX-35 infected in MDCK cells assessed as inhibition of virus-induced cytopathic effect measured after 45 hrs by CellTiter-Glo luminescence assay
- Type: functional, organism-based
- TEST_CONDITIONS: B/Brisbane/60/2008 BX-35, MDCK
MEASUREMENT_KIND: IC50 (µM)
Write it as a number; the unit µM goes unstated.

Using the record for "CC1(C)CC[C@]2(C(=O)N[C@@H](CCCNC(=N)N)C(=O)O)CC[C@]3(C)C(=CC[C@@H]4[C@@]5(C)CC[C@H](O)C(C)(C)[C@@H]5CC[C@]43C)[C@@H]2C1" , report its IC50.
61.6

Every entry's value here was drawn from ChEMBL document CHEMBL4406875.
